// reported IC50 per item
# Test System: TAF1-BD2 (Homo sapiens)
# Assay Explanation: TAF1-BD2 TR-FRET Binding Assay
# Condition Parameters: read-out: TAF1-BD2 HTRF IC50

Solved entries (count: 3):
| Compound | IC50 |
| --- | --- |
| Cc1[nH]c2c(=O)n(C)cc(C#CC(C)(C)O)c2c1C(=O)OC(C)c1ccccc1 (stereo not shown) | 83.2 nM |
| CCOC(=O)c1c[nH]c2c(=O)n(C)cc(C#CC(C)(C)O)c12 | 95.2 nM |
| Cc1[nH]c2c(=O)n(C)cc(C#CC(C)(C)O)c2c1-c1nnc(C(C)C)o1 | 29.4 nM |

Attention now turns to another entry.
[ask] Reported IC50 for CCOC(=O)c1c(C)[nH]c2c(=O)n(C)cc(C#CC(C)(O)COc3ccccc3)c12 (stereo not shown) : what is it?
[reply] 67.3 nM

---

# Test System: TAF1-BD2 (Homo sapiens, UniProt P21675)
# Assay Explanation: TAF1-BD2 TR-FRET Binding Assay
# Condition Parameters: read-out: TAF1-BD2 HTRF IC50
Metric: IC50 (nM)
Give just the number in nM; leave the unit off.

| Molecule | IC50 [nM] |
| --- | --- |
| CCOC(=O)c1c(C)[nH]c2c(=O)n(C)cc(C#CC(O)(CC)CC)c12 | 138 |
| CCC(C)(C)OC(=O)c1c(C)[nH]c2c(=O)n(C)cc(C#CC(C)(C)O)c12 | 35.1 |
| C=CCCn1cc(C#CC(C)(C)CO)c2c(C(=O)OCC)c(C)[nH]c2c1=O | 368 |

Attention now turns to another entry.
[ask] Reported IC50 for CC(=O)NCc1nnc(-c2c(C)[nH]c3c(=O)n(C)cc(C#CC(O)(c4ccccc4)C(F)(F)F)c23)o1 (stereo not shown) : what is it?
[reply] 117

---

# Test System: TAF1-BD2 (Homo sapiens, UniProt P21675)
# Assay Explanation: TAF1-BD2 TR-FRET Binding Assay
# Condition Parameters: read-out: TAF1-BD2 HTRF IC50
Metric: IC50 (nM)
Give just the number in nM; leave the unit off.

Solved entries (count: 5):
| Compound | Metric | Measurement Unit | Value Reported |
| --- | --- | --- | --- |
| CCOC(=O)c1c(C)[nH]c2c(=O)n(C)cc(C#CC(O)(c3ccccc3)C(F)F)c12 (single isomer, unassigned) [Example 93b] | IC50 | nM | 21.4 |
| CCOC(=O)c1c(C)[nH]c2c(=O)n(C)cc(C#CC(O)(c3ccccc3)C(F)(F)F)c12 (single isomer, unassigned) [Example 91b] | IC50 | nM | 42.2 |
| CCOC(=O)c1c(C)[nH]c2c(=O)n(C)cc(C#Cc3cccc(N)c3)c12 [Example 60] | IC50 | nM | 38.1 |
| Cc1cc2c(C#CC(C)(C)O)cn(C)c(=O)c2[nH]1 [Example 198] | IC50 | nM | 536 |
| Cc1nnc(-c2c(C)[nH]c3c(=O)n(C)cc(C#CC(C)(C)O)c23)o1 [Example 177] | IC50 | nM | 50.7 |

Attention now turns to another entry.
[ask] GET /values?readout=IC50&system=TAF1-BD2 (Homo sapiens, UniProt P21675)&item= Cc1[nH]c2c(=O)n(C)cc(C#CC(C)(O)C3CC3)c2c1-c1nnc(C(C)C)o1 (stereo not shown) [Example 191]
[reply] 36.4

---

# Test System: TAF1-BD1 (Homo sapiens)
# Assay Explanation: TAF1-BD1 TR-FRET Binding Assay
# Condition Parameters: read-out: TAF1-BD1 HTRF IC50
Metric: IC50 (nM)
Give just the number in nM; leave the unit off.

Solved entries (count: 3):
| Compound | Measurement Unit | IC50 |
| --- | --- | --- |
| CCOC(=O)c1c(C)[nH]c2c(=O)n(C)cc(C#CC3(O)CCCCC3)c12 | nM | 257 |
| CCOC(=O)c1c(C)[nH]c2c(=O)n(C)cc(C#CC(O)(c3cccc(-c4cn[nH]c4)c3)C(F)(F)F)c12 (stereo not shown) | nM | 171 |
| Cc1cc([C@](C)(O)C#Cc2cn(C)c(=O)c3[nH]c(C)c(C(=O)OC(C)C)c23)no1 | nM | 233 |

Attention now turns to another entry.
[ask] Reported IC50 for Cc1[nH]c2c(=O)n(C)cc(C#CC(C)(O)C3CC3)c2c1-c1nnc(C(C)(C)C)o1 (single isomer, unassigned) [Example 98b] : what is it?
[reply] 108

---

// reported IC50 per item
# Test System: TAF1-BD1 (Homo sapiens)
# Assay Explanation: TAF1-BD1 TR-FRET Binding Assay
# Condition Parameters: read-out: TAF1-BD1 HTRF IC50
Give just the number in nM; leave the unit off.

Solved entries (count: 6):
| Compound | Measurement Unit | IC50 |
| --- | --- | --- |
| Cc1[nH]c2c(=O)n(C)cc(C#CC(C)(O)CC#N)c2c1C(=O)OC(C)C (centres unmarked) | nM | 276 |
| CCC(C)(C)OC(=O)c1c(C)[nH]c2c(=O)n(C)cc(C#CC(C)(C)O)c12 | nM | 221 |
| Cc1nnc(-c2c(C)[nH]c3c(=O)n(C)cc(C#CC(O)(c4ccccc4)C(F)(F)F)c23)o1 (centres unmarked) | nM | 327 |
| CCOC(=O)c1c(C)[nH]c2c(=O)n(C)cc(C#CC3(C)COC3)c12 | nM | 434 |
| CCCCC(C)(C)OC(=O)c1c(C)[nH]c2c(=O)n(C)cc(C#CC(C)(C)O)c12 | nM | 288 |
| Cc1[nH]c2c(=O)n(C)cc(C#CC(C)(O)c3ccccc3)c2c1C(=O)OCC(C)C (centres unmarked) | nM | 130 |

Attention now turns to another entry.
[ask] Reported IC50 for CCOC(=O)c1c(C)[nH]c2c(=O)n(C)cc(C#CC(C)(O)CCc3ccccc3)c12 (centres unmarked) : what is it?
[reply] 182

---

# Test System: TAF1-BD1 (Homo sapiens)
# Assay Explanation: TAF1-BD1 TR-FRET Binding Assay
# Condition Parameters: read-out: TAF1-BD1 HTRF IC50
// reported log10 IC50 per item
Hello, just confirming the data are log10 of IC50 with units of nM.

| Compound | log10 IC50 |
| --- | --- |
| Cc1cc([C@](C)(O)C#Cc2cn(C)c(=O)c3[nH]c(C)c(-c4nnc(C(C)C)o4)c23)no1 [Example 194] | 2.39 |
| Cc1[nH]c2c(=O)n(C)cc(C#CC(C)(C)O)c2c1C(=O)OCc1ccccc1CO [Example 111] | 2.41 |
| CCOC(=O)c1c(C)[nH]c2c(=O)n(C)cc(C#CC3(O)CCc4cccnc43)c12 (single isomer, unassigned) [Example 99a] | 3.47 |

[ask] Reported log10 IC50 for CCOC(=O)c1c(C)[nH]c2c(=O)n(C)cc(C#CC(O)(c3cccc(N(C)C)c3)C(F)(F)F)c12 (stereo not drawn) [Example 39] : what is it?
[reply] 2.72

[ask] Reported log10 IC50 for C=CCCn1cc(C#CC(C)(O)C2CC2)c2c(C(=O)OCC(C)C)c(C)[nH]c2c1=O (stereo not drawn) [Example 122] : what is it?
[reply] 3.23

[ask] Reported log10 IC50 for CCOC(=O)c1c(C)[nH]c2c(=O)n(C)cc(C#CC(O)(c3cccc(-c4cccnc4)c3)C(F)(F)F)c12 (stereo not drawn) [Example 100] : what is it?
[reply] 2.28

[ask] Reported log10 IC50 for Cc1[nH]c2c(=O)n(C)cc(C#CC(O)(c3ccccc3)C(F)(F)F)c2c1-c1nnco1 (stereo not drawn) [Example 183] : what is it?
[reply] 2.78

---

// reported pIC50 per item
# Test System: TAF1-BD2 (Homo sapiens)
# Assay Explanation: TAF1-BD2 TR-FRET Binding Assay
# Condition Parameters: read-out: TAF1-BD2 HTRF IC50
# Protocol: IC50 Measurements for Inhibitors Using TAF1-BD2 TR-FRET Binding Assay His/Flag epitope tagged TAF1-BD21504-1635 was cloned, expressed, and purified to homogeneity. TAF1-BD2 binding and inhibition was assessed by monitoring the engagement of a biotinylated small molecule compound 1000 with the target using the TR-FRET assay technology (Perkin-Elmer). […]
The scale used: pIC50 is minus the common logarithm of the concentration in molar units.

| Compound | pIC50 |
| --- | --- |
| CCOC(=O)c1c(C)[nH]c2c(=O)n(CC)cc(C#CC(C)(C)O)c12 | 6.35 |

[ask] GET /values?readout=pIC50&system=TAF1-BD2 (Homo sapiens)&item= CCOC(=O)c1c(C)[nH]c2c(=O)n(C)cc(C#CC(C)(O)C3CC3)c12 (single isomer, unassigned) [Example 92a]
[reply] 7.48

[ask] GET /values?readout=pIC50&system=TAF1-BD2 (Homo sapiens)&item= `CCOC(=O)c1c(C)[nH]c2c(=O)n(C)cc(C#CC3(O)CCN(C)CC3)c12`
[reply] 6.09

[ask] GET /values?readout=pIC50&system=TAF1-BD2 (Homo sapiens)&item= `CCOC(=O)c1c(C2CC2)[nH]c2c(=O)n(C)cc(C#CC(C)(C)O)c12`
[reply] 6.45

[ask] GET /values?readout=pIC50&system=TAF1-BD2 (Homo sapiens)&item= Cc1[nH]c2c(=O)n(C)cc(C#CC(C)(C)O)c2c1C1=NC(C(C)C)CO1 (stereo not shown)
[reply] 6.75

[ask] GET /values?readout=pIC50&system=TAF1-BD2 (Homo sapiens)&item= `CCOC(=O)c1c(C)[nH]c2c(=O)n(C)cc(C#CC3CCCCC3)c12`
[reply] 6.23

[ask] GET /values?readout=pIC50&system=TAF1-BD2 (Homo sapiens)&item= Cc1[nH]c2c(=O)n(C)cc(C#CC(C)(O)C3CC3)c2c1-c1nnc(C(C)(C)C)o1 (stereo not shown) [Example 187]
[reply] 7.24
